Hey, just so you know, these numbers are from patent US20110045101A1.

# Tested on: Alternaria solani
# PROTOCOL DESCRIPTION: Test D: tomato early blight, sprayed the day before inoculation, visual disease rating
# Assay type: in vivo
# TEST SETTINGS: Alternaria solani, 168 h; 200 ppm; 100 = 100% disease control, 0 = no control relative to controls
Each entry below carries its reported pest or weed control at 200 ppm.
Give the quantity in %, number only.

IN: Please report the recorded pest or weed control at 200 ppm for COc1cc(F)c(-c2c(Cl)nc(CO)n2-c2ccc(F)cc2)c(F)c1 .
OUT: 100

***
IN: Please report the recorded pest or weed control at 200 ppm for C#Cc1nc(Cl)c(-c2c(F)cccc2F)n1-c1cccc(F)c1 .
OUT: 42

IN: Now consider Cc1nc(Cl)c(-c2ccc(F)cc2)n1-c1ccc(Cl)cc1 and answer again.
OUT: 99

IN: Now consider Cc1nc(Cl)c(-c2c(F)cccc2F)n1-c1ccc(Cl)cc1 and answer again.
OUT: 100

IN: Now consider COc1cc(F)c(-c2c(Cl)nc(Br)n2-c2ccc(C(F)(F)F)nc2)c(F)c1 and answer again.
OUT: 100

IN: Now consider C=Cc1nc(Cl)c(-c2c(F)ccc(OC)c2F)n1-c1cccc(OC(F)F)c1 and answer again.
OUT: 97

IN: Now consider N#CCc1nc(Br)c(-c2c(F)cccc2F)n1-c1ccc(Cl)cc1 and answer again.
OUT: 77

IN: Now consider N#Cc1ccc(F)c(-c2c(Cl)nc(Br)n2-c2ccc(Cl)cc2)c1F and answer again.
OUT: 100

IN: Now consider COc1cc(F)c(-c2c(Cl)nc(CF)n2-c2ccc(F)cc2)c(F)c1 and answer again.
OUT: 100
